Source of measurements: patent US8846928B2

- system under test: full length active recombinant SYK enzyme (Homo sapiens)
- Construct: full length active recombinant SYK enzyme (Millipore, Calif.)
- assay method text: Inhibition of Syk tyrosine phosphorylation activity (LANCE TR-FRET kinase assay)
pIC50: −log10 of the molar value.
Quick reference for pIC50 among some compounds

// solved cases for pIC50 follow
compound: NC(=O)c1cc(F)c(N[C@@H]2CCCC[C@@H]2N)nc1Nc1cccc(-c2nccs2)c1 [Example 189]
pIC50: 8.00 to 9.00
--
compound: NC(=O)c1ccc(N[C@H](CC2CC2)C(N)=O)nc1Nc1ccc2cccnc2c1 [Example 214]
pIC50: 7.00 to 8.00
--
compound: CC(C)C[C@@H](Nc1nc(Nc2cccc(-n3nccn3)c2)c(C(N)=O)cc1C#N)C(N)=O [Example 125]
pIC50: 6.00 to 7.00
--
compound: NC(=O)c1ccc(N[C@@H]2CCCC[C@@H]2N)nc1Nc1ccc2c(c1)OCCO2 [Example 254]
pIC50: 8.00 to 9.00
--
compound: Cn1ncc2c(Nc3nc(N[C@@H]4CCCC[C@@H]4N)c(F)cc3C(N)=O)cccc21 [Example 136]
pIC50: 8.00 to 9.00
--
compound: NC(=O)c1cc(F)c(N[C@@H]2CCCC[C@@H]2N)nc1Nc1cncc(-c2nccs2)c1 [Example 162]
pIC50: 8.00 to 9.00

As a next step, examine the compound that follows.
Field pIC50 (entry NC(=O)c1ccc(N[C@@H]2CCCC[C@@H]2N)nc1Nc1ccc2[nH]ncc2c1 (relative stereo) [Example 141] ) reads 8.00 to 9.00

====

- system under test: full length active recombinant SYK enzyme (Homo sapiens, UniProt P43405)
- Construct: full length active recombinant SYK enzyme (Millipore, Calif.)
- assay method text: Inhibition of Syk tyrosine phosphorylation activity (LANCE TR-FRET kinase assay)
pIC50: −log10 of the molar value.
measurement name: pIC50

// solved cases for pIC50 follow
compound smiles: Cc1cc(Nc2cc(N[C@H](Cc3cccc(F)c3)C(N)=O)c(F)cc2C(N)=O)sn1
reading: 7.00 to 8.00
--
compound smiles: COc1cc(F)cc(Nc2nc(N[C@@H]3CCCC(F)(F)[C@@H]3N)c(F)cc2C(N)=O)c1
reading: 6.00 to 7.00
--
compound smiles: Cc1cc(Nc2nc(N[C@@H]3CCCC[C@@H]3N)c(F)cc2C(N)=O)sn1
reading: 8.00 to 9.00
--
compound smiles: NC(=O)c1cc(F)c(N[C@@H]2CCCC[C@@H]2N)nc1Nc1ccc(N2CCOCC2)cc1
reading: 7.00 to 8.00
--
compound smiles: Cc1cncc(Nc2nc(N[C@@H]3CCCC[C@@H]3N)c(F)cc2C(N)=O)c1
reading: 8.00 to 9.00
--
compound smiles: Cn1ncc2c(Nc3nc(N[C@@H]4CCCC(F)(F)[C@@H]4N)c(F)cc3C(N)=O)cccc21
reading: 6.00 to 7.00
--
compound smiles: Cc1cc(Nc2cc(N[C@H](CC(C)C)C(N)=O)ccc2C(N)=O)sn1
reading: 7.00 to 8.00
--
compound smiles: Cc1cc(Nc2cc(N[C@H](Cc3ccc(O)cc3)C(N)=O)c(F)cc2C(N)=O)sn1
reading: 6.00 to 7.00

Field pIC50 (entry `C[C@@H](Nc1nc(Nc2ccc3ncccc3c2)c(C(N)=O)cc1F)C(N)=O` ) reads 7.00 to 8.00

Field pIC50 (entry `CC[C@H](N)CNc1ccc(C(N)=O)c(Nc2cc(C)ns2)c1` ) reads 6.00 to 7.00

Field pIC50 (entry `NC(=O)c1cc(F)c(N[C@@H]2CCCC(F)(F)[C@@H]2N)nc1Nc1cnn2ccccc12` ) reads 7.00 to 8.00

Field pIC50 (entry `NC(=O)c1cc(F)c(N[C@@H]2CCCC[C@@H]2N)nc1Nc1cccc(-n2ccnn2)c1` ) reads 8.00 to 9.00

Field pIC50 (entry `Cc1ccc(Nc2nc(N[C@H]3[C@@H](N)CCCC3(F)F)c(F)cc2C(N)=O)cc1` ) reads 7.00 to 8.00

Field pIC50 (entry `NC(=O)c1cc(F)c(N[C@@H]2CCCC[C@@H]2N)nc1Nc1ccnc2ccccc12` ) reads 8.00 to 9.00

Field pIC50 (entry `Cc1cccc(Nc2nc(N[C@@H]3CCOC[C@@H]3N)c(F)cc2C(N)=O)c1` ) reads 8.00 to 9.00

Field pIC50 (entry `N#Cc1cc(C(N)=O)c(Nc2cccc(-n3nccn3)c2)nc1NC[C@@H](N)C1CC1` ) reads 6.00 to 7.00
